# Tested on: SK-MEL-5 melanoma
# assay protocol: NCI tumour cell line growth inhibition, 48 h
Parameter: TGI. Scope: all listed entries.
measurement kind: TGI (µM)

molecule: COc1ccc(-c2c(CN3CCOCC3)sc3nc4ccccc4n23)cc1
measurement kind: TGI
reading qualifier: =
observed value: 98.8
--
molecule: Fc1ccccc1-c1nn2c(C34CC5CC(CC(C5)C3)C4)nnc2s1
measurement kind: TGI
reading qualifier: >
observed value: 100
--
molecule: CC(=O)OC1COC(n2c(-c3ccc(Cl)cc3)cc(-c3ccccc3)c(C#N)c2=S)C(OC(C)=O)C1OC(C)=O (stereo unspecified)
measurement kind: TGI
reading qualifier: >
observed value: 42.2
--
molecule: OC(C/C(=N\N1CCCCC1)c1cccs1)(C(F)(F)F)C(F)(F)F
measurement kind: TGI
reading qualifier: >
observed value: 10
--
molecule: O=C(C[n+]1ccccc1)N=N/C(C(=O)Nc1c(Cl)c(O)c2ccccc2c1O)=C1/C(=O)Oc2cc(O)ccc2C1=O
measurement kind: TGI
reading qualifier: =
observed value: 2.26
--
molecule: O=C(CC12CC3CC(CC(C3)C1)C2)NCCOCCOCCOCCNC(=O)c1cc2c(o1)C(=O)c1ccccc1C2=O
measurement kind: TGI
reading qualifier: =
observed value: 0.343
--
molecule: CN(C(=O)Cc1ccc(Cl)c(Cl)c1)[C@@H]1CCCC[C@H]1[N+]1(C)CC=CC1
measurement kind: TGI
reading qualifier: >
observed value: 100
--
molecule: NC(N)=N/N=C/c1c(-c2ccc([N+](=O)[O-])cc2)nc2n1CCS2
measurement kind: TGI
reading qualifier: =
observed value: 32
--
molecule: Cc1ccc(NC(=O)CC(=O)n2nc(-c3ccccc3)c(N=Nc3ccccc3Cl)c2-c2ccccc2)cc1
measurement kind: TGI
reading qualifier: >
observed value: 100
--
molecule: CC/C=C/C(=O)CC(O)(C(F)(F)F)C(F)(F)F
measurement kind: TGI
reading qualifier: >
observed value: 100
--
molecule: NC(CCP(=O)(O)CCC1C=CC=CC1)C(=O)O (stereo unspecified)
measurement kind: TGI
reading qualifier: >
observed value: 100
--
molecule: CCCCCC(CO)C(O)(C(F)(F)F)C(F)(F)F (stereo unspecified)
measurement kind: TGI
reading qualifier: >
observed value: 10
--
molecule: COc1ccc(NC(C)=O)cc1C1CCC(=O)N1 (stereo unspecified)
measurement kind: TGI
reading qualifier: >
observed value: 100
--
molecule: NC(=O)C(c1ccccc1)N1OC2C(=O)N(c3cccc4ccccc34)C(=O)C2C1c1c2ccccc2c(Cl)c2ccccc12 (stereo unspecified)
measurement kind: TGI
reading qualifier: =
observed value: 11.2
--
molecule: CCCN1CCN(c2ccc3nc(-c4ccc5nc(-c6cc(OC)ccc6OC)[nH]c5c4)[nH]c3c2)CC1
measurement kind: TGI
reading qualifier: =
observed value: 34.1
--
molecule: COc1ccc(C(c2c[nH]c3ccc(Br)cc23)c2c[nH]c3ccc(Br)cc23)cc1
measurement kind: TGI
reading qualifier: =
observed value: 1.12
--
molecule: COC(=O)C12C3C4C5C3(C#N)C1C5(C(=O)OC)C42C(=O)N(C(C)C)C(C)C (stereo unspecified)
measurement kind: TGI
reading qualifier: >
observed value: 100
--
molecule: COc1cc(C(=O)C/C(CCC(=O)Nc2ccc(Cl)cc2C)=N/NC(=O)C(N)=O)ccc1O
measurement kind: TGI
reading qualifier: >
observed value: 100
--
molecule: CC1(C)CCCCCCC2OC2CCCCCC(C)(C)C1=O (stereo unspecified)
measurement kind: TGI
reading qualifier: =
observed value: 50.2
--
molecule: C(=NCc1ccccc1)c1ccccc1-c1ccccc1C=NCc1ccccc1
measurement kind: TGI
reading qualifier: >
observed value: 10
--
molecule: CCN=c1cc2sc3cc(NCC)c(C)cc3nc-2cc1C
measurement kind: TGI
reading qualifier: =
observed value: 1.93
